Recorded GI50 by entry
# Tested on: RXF 393
# Method Description: NCI tumour cell line growth inhibition, 48 h
Active and inactive are the calls of the source. Cut-off read from the data, not from the text of the source: active = GI50 up to about 1.1 µM and inactive = higher.

Examples from the recorded data:
COc1c(C)c(C/C=C(\C)CC/C=C(\C)CCC=C(C)C)c(OC)c(OC)c1OC    44 µM (inactive)
CCCCCCCCCc1nn2c(Cc3ccccc3)nnc2s1    18.5 µM (inactive)
Cc1cc(C)nc(NS(=O)(=O)c2ccc(NNC(=O)c3cccc4c(NNc5ccc(S(=O)(=O)Nc6nc(C)cc(C)n6)cc5)c5ccccc5nc34)cc2)n1    20.8 µM (inactive)
C=C(C)[C@@H]1CC[C@]2(CO)CC[C@]3(C)[C@H](CC[C@@H]4[C@@]5(C)CC[C@H](O)C(C)(C)[C@@H]5CC[C@]43C)[C@@H]12 [BETULIN]    10.3 µM (inactive)
CN1CCCCC(C#N)(c2ccccc2)CC1 (centres undefined)    > 100 µM (inactive)

Entry COc1cc(/C=C/c2ccc(OC)c(OC)c2OC)cc(OC)c1OC , GI50 reported as 22 µM (inactive)

Entry COC(=O)/C=C\C(C#N)(C#N)/N=C/c1ccc(Br)cc1 , GI50 reported as 4.92 µM (inactive)

Entry CC(C)=CCC/C(C)=C/C=C/C(C)=C/C1C[C@@]2(C(O)O1)[C@H](CCCO)/C(=C(/C)C=O)CC[C@]2(C)O (some centres undefined) , GI50 reported as 18.6 µM (inactive)

Entry N[C@@H]1CCN(c2c(F)cc3c(=O)c(C(=O)O)cn4c3c2Oc2cc3c(ccc5ccccc53)cc2-4)C1 , GI50 reported as 1.64 µM (inactive)

Entry COC(=O)/N=[N+](\[O-])C(c1ccc(OC)cc1)C1CCCCC1 (centres undefined) , GI50 reported as 9.18 µM (inactive)

Entry C=CCCC1(CCP(=O)(c2ccccc2)c2ccccc2)OCCO1 , GI50 reported as > 100 µM (inactive)

Values were extracted from ChEMBL document CHEMBL1201862.
